# Tested on: HBV
# METHOD_SUMMARY: Extracellular HBV DNA (vDNA) by qPCR in HBV-infected PHH
# Assay type: cell-based
# ASSAY_CONTEXT: Hepatitis B virus, read-out: vDNA EC50, PHH infected with HBV GTC; treated every three to four days for 13 days
EXPERIMENTAL_READOUT: EC50 (nM)
Just the number in nM, nothing appended.

Give its EC50 value. Item: "CCOC(=O)c1ccnc(CNCC(=O)N(CC)CCN(C)C)c1" 79

====

# TARGET_OF_ASSAY: KDM7B (Homo sapiens, UniProt Q9UPP1)
# Sequence (Q9UPP1 whole entry): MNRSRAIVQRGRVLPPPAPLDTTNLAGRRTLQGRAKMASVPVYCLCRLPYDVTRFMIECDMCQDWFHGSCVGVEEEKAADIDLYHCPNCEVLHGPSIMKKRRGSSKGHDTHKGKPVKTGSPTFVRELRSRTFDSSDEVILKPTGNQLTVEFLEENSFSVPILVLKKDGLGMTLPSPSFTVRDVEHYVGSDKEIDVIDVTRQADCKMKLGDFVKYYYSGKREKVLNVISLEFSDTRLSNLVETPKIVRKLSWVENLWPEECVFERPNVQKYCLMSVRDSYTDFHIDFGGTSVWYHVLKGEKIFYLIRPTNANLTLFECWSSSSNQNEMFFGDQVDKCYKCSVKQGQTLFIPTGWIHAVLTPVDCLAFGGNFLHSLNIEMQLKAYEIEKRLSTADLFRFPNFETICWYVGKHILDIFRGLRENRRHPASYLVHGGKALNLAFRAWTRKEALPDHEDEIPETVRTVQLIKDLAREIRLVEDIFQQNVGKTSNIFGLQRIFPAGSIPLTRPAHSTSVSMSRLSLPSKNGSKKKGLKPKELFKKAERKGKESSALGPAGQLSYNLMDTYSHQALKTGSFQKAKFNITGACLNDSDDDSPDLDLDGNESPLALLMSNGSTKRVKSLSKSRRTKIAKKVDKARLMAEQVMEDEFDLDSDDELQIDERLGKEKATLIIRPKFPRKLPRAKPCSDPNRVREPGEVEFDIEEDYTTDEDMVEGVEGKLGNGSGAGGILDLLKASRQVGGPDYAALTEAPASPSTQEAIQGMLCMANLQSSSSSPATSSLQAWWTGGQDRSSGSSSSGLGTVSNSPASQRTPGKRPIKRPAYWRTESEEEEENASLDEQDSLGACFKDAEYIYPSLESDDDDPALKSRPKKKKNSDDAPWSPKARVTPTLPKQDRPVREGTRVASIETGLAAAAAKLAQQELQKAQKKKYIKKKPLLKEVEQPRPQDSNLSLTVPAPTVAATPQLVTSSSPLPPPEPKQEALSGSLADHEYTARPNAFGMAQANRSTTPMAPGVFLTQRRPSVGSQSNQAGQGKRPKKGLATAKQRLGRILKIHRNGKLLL
EXPERIMENTAL_READOUT: IC50 (µM)
Just the number in µM, nothing appended.

MOLECULE | OBSERVED
Oc1cccc2cccnc12 [8-OH Quinoline, 8-hydroxyquinoline, reference compound] | 13

Let us move to another entry and its IC50.
Give its IC50 value. Item: "CCN(CCN(C)C)C(=O)CNCc1cc(C(=O)O)ccn1" 0.4

====

# System: HBV
# METHOD_SUMMARY: Extracellular HBV DNA (vDNA) by qPCR in HBV-infected PHH
# Assay type: cell-based
# ASSAY_CONTEXT: Hepatitis B virus, read-out: vDNA EC50, PHH infected with HBV GTD; treated every three to four days for 13 days (Table 3)
EXPERIMENTAL_READOUT: EC50 (nM)
Just the number in nM, nothing appended.

Request body: readout EC50, system HBV, query CCOC(=O)c1ccnc(CNCC(=O)N(CC)CCN(C)C)c1 [GS-5801] . Return the value. 220

====

# Test system: HBV
# METHOD_SUMMARY: Intracellular HBV RNA (vRNA) by qRT-PCR in HBV-infected PHH
# Type: cell-based
# ASSAY_CONTEXT: Hepatitis B virus, read-out: vRNA EC50, PHH donor Hu8181; HBV GTD; treated every three to four days for 14 days
EXPERIMENTAL_READOUT: EC50 (µM)
Just the number in µM, nothing appended.

Request body: readout EC50, system HBV, query CCOC(=O)c1ccnc(CNCC(=O)N(CC)CCN(C)C)c1 [GS-5801] . Return the value. 0.16

====

# TARGET_OF_ASSAY: SET7/9 (Homo sapiens)
# Construct: 2-366
# Sequence (Q8WTS6 2-366): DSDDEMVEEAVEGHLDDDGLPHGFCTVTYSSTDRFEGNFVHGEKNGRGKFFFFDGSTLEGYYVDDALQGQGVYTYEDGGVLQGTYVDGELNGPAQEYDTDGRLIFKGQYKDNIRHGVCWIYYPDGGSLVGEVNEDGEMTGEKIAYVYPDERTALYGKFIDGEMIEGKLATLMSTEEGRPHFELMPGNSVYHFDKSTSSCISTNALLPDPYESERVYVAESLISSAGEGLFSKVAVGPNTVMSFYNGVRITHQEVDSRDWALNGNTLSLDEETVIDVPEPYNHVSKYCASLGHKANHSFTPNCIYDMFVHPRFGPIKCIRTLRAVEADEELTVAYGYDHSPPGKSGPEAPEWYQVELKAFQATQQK
# METHOD_SUMMARY: Histone methyltransferase enzymatic assay, SET7/9
# ASSAY_CONTEXT: enzyme conc. 100 nM
EXPERIMENTAL_READOUT: pIC50
Scale note: pIC50 = -log10(concentration in M).

Give its pIC50 value. Item: Nc1ncnc2c1ncn2[C@@H]1O[C@H](CSCC[C@H](N)C(=O)O)[C@@H](O)[C@H]1O [SAH, S-(5′-Adenosyl)-L-homocysteine, reference compound] 4.15

====

# TARGET_OF_ASSAY: EZH2/EED/SUZ12 (Homo sapiens, UniProt O75530+Q15022+Q15910)
# Construct: 2-746/2-441/2-739
# Sequence (Q15910 2-746): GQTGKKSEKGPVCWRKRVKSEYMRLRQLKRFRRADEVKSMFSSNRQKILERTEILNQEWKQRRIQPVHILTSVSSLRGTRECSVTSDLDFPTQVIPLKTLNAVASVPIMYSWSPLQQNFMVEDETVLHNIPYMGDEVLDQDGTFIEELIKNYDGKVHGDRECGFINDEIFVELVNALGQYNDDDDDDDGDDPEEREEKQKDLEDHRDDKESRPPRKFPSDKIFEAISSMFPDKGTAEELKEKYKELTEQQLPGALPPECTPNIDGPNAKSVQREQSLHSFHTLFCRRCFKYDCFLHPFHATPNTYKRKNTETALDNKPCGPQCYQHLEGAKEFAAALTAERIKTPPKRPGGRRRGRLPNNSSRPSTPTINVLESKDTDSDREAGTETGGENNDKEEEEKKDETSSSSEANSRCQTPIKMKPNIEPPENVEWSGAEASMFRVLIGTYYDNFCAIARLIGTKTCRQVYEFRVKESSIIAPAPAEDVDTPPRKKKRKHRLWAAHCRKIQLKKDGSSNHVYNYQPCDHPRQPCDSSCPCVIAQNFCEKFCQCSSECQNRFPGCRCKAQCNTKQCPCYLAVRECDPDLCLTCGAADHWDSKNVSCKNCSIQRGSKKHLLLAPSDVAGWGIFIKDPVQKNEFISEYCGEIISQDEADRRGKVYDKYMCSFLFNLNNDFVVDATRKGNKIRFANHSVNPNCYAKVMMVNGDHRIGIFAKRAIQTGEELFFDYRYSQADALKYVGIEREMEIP
# Sequence (O75530 2-441 partner limits assumed): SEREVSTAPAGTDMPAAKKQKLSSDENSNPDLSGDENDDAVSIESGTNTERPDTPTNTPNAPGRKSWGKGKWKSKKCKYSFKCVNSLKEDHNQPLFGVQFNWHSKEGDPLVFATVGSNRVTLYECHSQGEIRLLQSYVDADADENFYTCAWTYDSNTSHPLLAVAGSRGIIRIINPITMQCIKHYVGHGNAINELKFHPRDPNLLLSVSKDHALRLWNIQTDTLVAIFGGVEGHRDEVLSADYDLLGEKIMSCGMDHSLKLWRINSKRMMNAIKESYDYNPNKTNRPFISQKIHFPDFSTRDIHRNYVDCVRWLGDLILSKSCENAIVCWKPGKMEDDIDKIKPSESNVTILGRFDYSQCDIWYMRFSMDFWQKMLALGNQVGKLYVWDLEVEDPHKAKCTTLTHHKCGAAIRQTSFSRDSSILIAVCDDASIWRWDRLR
# Sequence (Q15022 2-739 partner limits assumed): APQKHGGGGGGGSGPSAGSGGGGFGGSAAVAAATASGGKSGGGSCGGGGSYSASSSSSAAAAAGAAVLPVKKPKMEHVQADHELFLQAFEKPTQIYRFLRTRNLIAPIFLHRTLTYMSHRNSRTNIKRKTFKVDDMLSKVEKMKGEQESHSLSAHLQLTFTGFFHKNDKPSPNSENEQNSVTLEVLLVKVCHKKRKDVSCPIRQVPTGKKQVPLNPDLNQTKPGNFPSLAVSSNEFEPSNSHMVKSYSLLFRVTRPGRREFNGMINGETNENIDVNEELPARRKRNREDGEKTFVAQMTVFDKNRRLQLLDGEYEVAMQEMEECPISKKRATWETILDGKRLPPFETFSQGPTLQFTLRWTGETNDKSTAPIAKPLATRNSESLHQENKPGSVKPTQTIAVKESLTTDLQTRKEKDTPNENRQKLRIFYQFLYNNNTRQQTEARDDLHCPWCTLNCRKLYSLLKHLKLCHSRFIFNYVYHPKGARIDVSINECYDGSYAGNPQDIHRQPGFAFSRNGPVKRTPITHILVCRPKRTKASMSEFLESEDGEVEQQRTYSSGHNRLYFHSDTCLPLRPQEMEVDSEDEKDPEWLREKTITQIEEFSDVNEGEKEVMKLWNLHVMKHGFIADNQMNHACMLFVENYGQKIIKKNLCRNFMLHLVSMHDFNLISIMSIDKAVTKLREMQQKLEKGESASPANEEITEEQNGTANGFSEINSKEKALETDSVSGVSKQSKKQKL
# METHOD_SUMMARY: Histone methyltransferase enzymatic assay, EZH2/EED/SUZ12
# ASSAY_CONTEXT: enzyme conc. 100 nM
# Method: Histone methyltransferase assays were performed in 96-well half-area optiplates (PerkinElmer) at room temperature. All concentrations are final unless noted otherwise. Compounds were serially diluted in DMSO and the final DMSO concentration was 1%. […] The plate was sealed, mixed as previously noted, incubated overnight, and read on a TopCount plate reader (PerkinElmer). Data was analyzed using GraphPad Prism 6.0 (La Jolla, CA). […]
pIC50: −log10 of the molar value.
EXPERIMENTAL_READOUT: pIC50

Give its pIC50 value. Item: "CCN(CCN(C)C)C(=O)CNCc1cc(C(=O)O)ccn1" < 4.00
